This listing pairs molecules with measured IC50.
- experimentalSystem: Pyruvate dehydrogenase kinase (Rattus norvegicus, UniProt Q63065+A6IPZ9+Q64536+O54937)
- protocolDescription: Inhibitory activity tested against Pyruvate Dehydrogenase Kinase (PDHK) receptor from rats.
- Format: protein assay
quantity: IC50 (µM)

{"molecule": "O=C(N1CCC(Cc2ccccc2)CC1)C(Cl)(Cl)Cl", "quantity": "IC50", "resultUnits": "µM", "reportedValue": 30}
{"molecule": "C[C@@](O)(C(=O)N1CCN(c2ccccc2)CC1)C(F)(F)F", "quantity": "IC50", "resultUnits": "µM", "reportedValue": 4.16}
{"molecule": "O=C(NC1C2CC3CC(C2)CC1C3)C(O)(C(F)(F)F)C(F)(F)F (stereo not given)", "quantity": "IC50", "resultUnits": "µM", "reportedValue": 17}
{"molecule": "CC(C)(O)C(=O)N1CCC(Cc2ccccc2)CC1", "quantity": "IC50", "resultUnits": "µM", "reportedValue": 150}
{"molecule": "CC(=O)N1CCC(Cc2ccccc2)CC1", "quantity": "IC50", "resultUnits": "µM", "reportedValue": 74}
{"molecule": "CCCC1CCN(C(=O)[C@@](C)(O)C(F)(F)F)CC1", "quantity": "IC50", "resultUnits": "µM", "reportedValue": 3.1}
{"molecule": "C[C@@H]1CN(C(=O)[C@@](C)(O)C(F)(F)F)CCN1C(=O)c1ccccc1", "quantity": "IC50", "resultUnits": "µM", "reportedValue": 0.173}
{"molecule": "C[C@](O)(C(=O)Nc1ccccc1Cl)C(F)(F)F", "quantity": "IC50", "resultUnits": "µM", "reportedValue": 9.8}
{"molecule": "C[C@@H]1CN(C(=O)[C@@](C)(O)C(F)(F)F)[C@@H](C)CN1S(=O)(=O)c1cccc2ccccc12", "quantity": "IC50", "resultUnits": "µM", "reportedValue": 0.0045}
{"molecule": "C[C@@](O)(C(=O)N1CCN(C(=O)c2ccc(C#N)cc2)CC1)C(F)(F)F", "quantity": "IC50", "resultUnits": "µM", "reportedValue": 6.7}

----------
This listing pairs compounds with measured IC50.
- experimentalSystem: Pyruvate dehydrogenase kinase (Rattus norvegicus, UniProt Q63065+A6IPZ9+Q64536+O54937)
- protocolDescription: Inhibitory activity tested against Pyruvate Dehydrogenase Kinase (PDHK) receptor from rats.
- Type: protein assay

{"compound": "CN(C)C(=O)N1CCC(Cc2ccccc2)CC1", "inequalitySymbol": "=", "IC50 [µM]": 416}
{"compound": "CCC(C)(O)C(=O)Nc1ccccc1Cl (configuration not stated)", "inequalitySymbol": "=", "IC50 [µM]": 23}
{"compound": "C[C@@](O)(C(=O)N1CCN(c2cc([N+](=O)[O-])ccn2)CC1)C(F)(F)F", "inequalitySymbol": "=", "IC50 [µM]": 2.84}
{"compound": "O=C(NC1C2CC3CC(C2)CC1C3)C1(O)CC1 (configuration not stated)", "inequalitySymbol": "=", "IC50 [µM]": 15}
{"compound": "COC(=O)c1ccc(C(=O)N2C[C@H](C)N(C(=O)[C@@](C)(O)C(F)(F)F)C[C@H]2C)cc1", "inequalitySymbol": "=", "IC50 [µM]": 0.019}
{"compound": "CCC(O)(C(=O)Nc1ccccc1Cl)C(F)(F)F (configuration not stated)", "inequalitySymbol": "=", "IC50 [µM]": 20}
{"compound": "COc1cc(C(=O)N2CCN(C(=O)[C@@](C)(O)C(F)(F)F)C[C@H]2C)cc(OC)c1OC", "inequalitySymbol": "=", "IC50 [µM]": 0.04}
{"compound": "O=C(C(Cl)Cl)N1CCC(Cc2ccccc2)CC1", "inequalitySymbol": "=", "IC50 [µM]": 0.179}
{"compound": "C[C@@H]1CN(C(=O)[C@@](C)(O)C(F)(F)F)CCN1S(=O)(=O)c1ccc(C(C)(C)C)cc1", "inequalitySymbol": "=", "IC50 [µM]": 0.036}
{"compound": "C/N=C(\\S)N1CC=C(C(C)(C)C)CC1", "inequalitySymbol": "=", "IC50 [µM]": 180}
{"compound": "C[C@@H]1CN(C(=O)[C@@](C)(O)C(F)(F)F)[C@@H](C)CN1C(=O)c1ccc(C#N)cc1", "inequalitySymbol": "=", "IC50 [µM]": 0.016}
{"compound": "C[C@@H]1CN(C(=O)[C@@](C)(O)C(F)(F)F)CCN1C(=O)OCc1ccccc1", "inequalitySymbol": "=", "IC50 [µM]": 0.021}
{"compound": "CC(O)C(=O)N1CCC(Cc2ccccc2)CC1 (configuration not stated)", "inequalitySymbol": "=", "IC50 [µM]": 310}
{"compound": "CNC(=O)N1CCC(Cc2ccccc2)CC1", "inequalitySymbol": "=", "IC50 [µM]": 22.4}
{"compound": "C[C@@](O)(C(=O)N1CCCN(c2cc(Cl)ccn2)CC1)C(F)(F)F", "inequalitySymbol": "=", "IC50 [µM]": 2.59}
{"compound": "C[C@@](O)(C(=O)NC1C2CC3CC(C2)CC1C3)C(F)(F)F (some centres not stated)", "inequalitySymbol": "=", "IC50 [µM]": 0.3}
{"compound": "C[C@@](O)(C(=O)NC1CCCCC1)C(F)(F)F", "inequalitySymbol": "=", "IC50 [µM]": 6.2}
{"compound": "CC(O)(C(=O)N1CCC(Cc2ccccc2)CC1)C(F)(F)F (configuration not stated)", "inequalitySymbol": "=", "IC50 [µM]": 2.16}
{"compound": "CC(O)(C(=O)N1CCCCC1)C(F)(F)F (configuration not stated)", "inequalitySymbol": "=", "IC50 [µM]": 23.9}
{"compound": "C[C@@H]1CN(C(=O)[C@@](C)(O)C(F)(F)F)CCN1S(=O)(=O)c1ccccc1", "inequalitySymbol": "=", "IC50 [µM]": 0.037}
{"compound": "O=C([O-])C(Cl)Cl.[Na+] [SODIUM DICHLOROACETATE]", "inequalitySymbol": ">", "IC50 [µM]": 1000}
{"compound": "O=C(N1CCC(Cc2ccccc2)CC1)C1(O)CC1", "inequalitySymbol": "=", "IC50 [µM]": 260}

Just for reference, ChEMBL document CHEMBL1133665 is where these values come from.
